assayed.system: human CaMKIIδ (Homo sapiens)
Construct: Full-length, glutathione-S-transferase(GST)-tagged, human CaMKIIδ was purchased from Carna Biosciences; purchased Carna Biosciences (CaMKIIδ); Wako Pure Chemical Industries (calmodulin) 02-111
method.summary: Evaluation of in vitro CaMKII inhibitory activity (binding assay, TR-FRET)
measurement.setup: human CaMKIIδ, TR-FRET binding assay; class symbols A/B/C; read-out: Act (CaMKII inhibitory activity, binding assay)
pIC50: −log10 of the molar value.
Listed compounds paired with reported pIC50

Check out these entries, answers already filled in.
compound: CC(=O)NC1CCN(C(=O)c2cccc(-c3cnn4ccc(-c5cccc(O[C@@H](C)Cn6cnnn6)c5)nc34)c2)CC1
pIC50: 7.00 to 8.00
//
compound: C[C@@H](Cn1cnnn1)Oc1cccc(-c2ccn3ncc(-c4cccc(C(=O)NC5CC(=O)N(C)C5)c4)c3n2)c1 (stereo partly shown)
pIC50: > 8.00
//
compound: C[C@@H](Cn1cnnn1)Oc1cc(-c2ccn3ncc(-c4ccnn4C)c3n2)ccc1F
pIC50: 7.00 to 8.00

Problem: Query: pIC50; subject: C[C@@H](Cn1cnnn1)Oc1cccc(-c2ccn3ncc(-c4cccc(C(=O)Nc5cnn(C)c5)c4)c3n2)c1
Solution: > 8.00

Problem: Query: pIC50; subject: C[C@@H](Cn1cnnn1)Oc1cccc(-c2ccn3ncc(-c4ccc(N5CCOCC5)cc4)c3n2)c1
Solution: 7.00 to 8.00

Problem: Query: pIC50; subject: C[C@@H](Cn1cnnn1)Oc1cc(-c2ccn3ncc(-c4cnn(C)c4C#N)c3n2)ccc1F
Solution: > 8.00

Problem: Query: pIC50; subject: C[C@@H](Cn1cnnn1)Oc1cc(-c2ccn3ncc(-c4ccc(N5CCOCC5)cc4)c3n2)ccc1F
Solution: 7.00 to 8.00

---

assayed.system: human CaMKIIδ (Homo sapiens, UniProt Q13557)
Construct: Full-length, glutathione-S-transferase(GST)-tagged, human CaMKIIδ was purchased from Carna Biosciences; purchased Carna Biosciences (CaMKIIδ); Wako Pure Chemical Industries (calmodulin) 02-111
method.summary: Evaluation of in vitro CaMKII inhibitory activity (binding assay, TR-FRET)
measurement.setup: human CaMKIIδ, TR-FRET binding assay; class symbols A/B/C; read-out: Act (CaMKII inhibitory activity, binding assay)
Listed molecules paired with reported IC50

Check out these entries, answers already filled in.
molecule: CNC(=O)CNC(=O)c1cccc(-c2cnn3ccc(-c4cccc(O[C@@H](C)Cn5cnnn5)c4)nc23)c1 [compound 77]
IC50: < 0.01 µM
--
molecule: Cc1nn2ccc(-c3ccc(F)c(O[C@@H](C)Cn4cnnn4)c3)nc2c1-c1cccs1 [Example 57]
IC50: 0.01 to 0.1 µM
--
molecule: C[C@@H](Cn1cnnn1)Oc1cccc(-c2ccn3ncc(-c4cccc(C(=O)NCCc5cccnc5)c4)c3n2)c1 [compound 108]
IC50: < 0.01 µM

Problem: Query: IC50; subject: COc1ccnc(-c2cnc3ccc(-c4ccc(F)c(O[C@@H](CF)Cn5cnnn5)c4)nn23)c1C#N [Example 475]
Solution: < 0.01 µM

Problem: Query: IC50; subject: C[C@@H](Cn1cnnn1)Oc1cccc(-c2ccn3ncc(-c4cccc(C(=O)NCC5CCOCC5)c4)c3n2)c1 [compound 100]
Solution: < 0.01 µM

Problem: Query: IC50; subject: CNC(=O)c1ccnc(-n2cnc3ccc(-c4ccc(F)c(O[C@@H](C)Cn5cnnn5)c4)nc32)c1 [compound 116]
Solution: < 0.01 µM

Problem: Query: IC50; subject: C[C@@H](Cn1cnnn1)Oc1cc(-c2ccn3ncc(-c4ccccc4OC(F)(F)F)c3n2)ccc1F [compound 45]
Solution: 0.01 to 0.1 µM

---

assayed.system: human CaMKIIδ (Homo sapiens, UniProt Q13557)
Construct: Full-length, glutathione-S-transferase(GST)-tagged, human CaMKIIδ was purchased from Carna Biosciences; purchased Carna Biosciences (CaMKIIδ); Wako Pure Chemical Industries (calmodulin) 02-111
method.summary: Evaluation of in vitro CaMKII inhibitory activity (binding assay, TR-FRET)
measurement.setup: in vitro CaMKII inhibitory activity (binding assay), human CaMKIIδ; read-out: Act
metric: IC50

Problem: Query: IC50; subject: C[C@@H](Cn1cnnn1)Oc1cccc(-c2ccc3ncc(-c4ccc(F)c(F)c4C#N)n3n2)n1
Solution: 10 to 100 nM

Problem: Query: IC50; subject: COc1ncnc(-c2cnc3ccc(-c4cccc(O[C@@H](C)Cn5cnnn5)n4)nn23)c1C#N
Solution: > 100 nM

Problem: Query: IC50; subject: C[C@@H](Cn1cnnn1)Oc1cccc(-c2ccc3ncc(-c4cc(F)cn(CC(F)F)c4=O)n3n2)c1
Solution: < 10 nM

Problem: Query: IC50; subject: C[C@@H](Cn1cnnn1)Oc1cc(-c2ccc3ncc(-c4c(C#N)c(=O)ccn4CF)n3n2)ccc1F
Solution: 10 to 100 nM

Problem: Query: IC50; subject: COc1ncc(F)cc1-c1cnc2ccc(-c3cccc(O[C@@H](C)Cn4cnnn4)c3)nn12
Solution: < 10 nM

Problem: Query: IC50; subject: C[C@@H](Cn1cnnn1)Oc1cccc(-c2ccc3ncn(-c4cc(C(F)F)ccc4C#N)c3n2)n1
Solution: > 100 nM

Problem: Query: IC50; subject: C[C@@H](Cn1cnnn1)Oc1cccc(-c2ccc3ncn(-c4ncccc4C#N)c3n2)c1
Solution: < 10 nM

---

Listed molecules paired with reported IC50
assayed.system: human CaMKIIδ (Homo sapiens, UniProt Q13557)
Construct: Full-length, glutathione-S-transferase(GST)-tagged, human CaMKIIδ was purchased from Carna Biosciences; purchased Carna Biosciences (CaMKIIδ); Wako Pure Chemical Industries (calmodulin) 02-111
method.summary: Evaluation of in vitro CaMKII inhibitory activity (binding assay, TR-FRET)
measurement.setup: human CaMKIIδ, TR-FRET binding assay; class symbols A/B/C; read-out: Act (CaMKII inhibitory activity, binding assay)

Check out these entries, answers already filled in.
molecule: C[C@@H](Cn1cnnn1)Oc1cc(-c2ccn3ncc(-c4cccc(C(=O)N5CCC(N6CCOCC6)CC5)c4)c3n2)ccc1F
assayed.system: human CaMKIIδ (Homo sapiens, UniProt Q13557)
IC50: < 10 nM
//
molecule: C[C@@H](Cn1cnnn1)Oc1cc(-c2ccc3ncc(-c4cccc(C#N)c4C#N)n3n2)ccc1F
assayed.system: human CaMKIIδ (Homo sapiens, UniProt Q13557)
IC50: < 10 nM
//
molecule: CCN(CC)CCNC(=O)c1cccc(-c2cnn3ccc(-c4ccc(C#N)c(O[C@@H](C)Cn5cnnn5)c4)nc23)c1
assayed.system: human CaMKIIδ (Homo sapiens, UniProt Q13557)
IC50: 10 to 100 nM

Problem: Query: IC50; subject: CC(Cn1cnnn1)Oc1cc(-c2ccc3ncc(-c4cccc(OC5CCC(N6CC(C)OC(C)C6)CC5)c4C#N)n3n2)ccc1F (centres unmarked)
Solution: < 10 nM

Problem: Query: IC50; subject: C[C@@H](Cn1cnnn1)Oc1cc(-c2ccc3ncc(-c4cccc(OCC5CCOCC5)c4C#N)n3n2)ccc1F
Solution: < 10 nM

Problem: Query: IC50; subject: C[C@@H](Cn1cnnn1)Oc1cc(-c2ccc3ncc(-c4cc(Br)cc5c4OCC5)n3n2)ccc1F
Solution: < 10 nM

Problem: Query: IC50; subject: C[C@@H](Cn1cnnn1)Oc1cc(-c2ccc3ncn(-c4ncccc4C#N)c3n2)ccc1F
Solution: < 10 nM

Problem: Query: IC50; subject: C[C@@H](Cn1cnnn1)Oc1cc(-c2ccc3ncc(-c4cccc(OCC(F)(F)F)c4C#N)n3n2)ccc1F
Solution: < 10 nM

Problem: Query: IC50; subject: COC(=O)c1ccnc(-n2cnc3ccc(-c4ccc(F)c(O[C@@H](C)Cn5cnnn5)c4)nc32)c1
Solution: < 10 nM

---

assayed.system: human CaMKIIδ (Homo sapiens)
Construct: Full-length, glutathione-S-transferase(GST)-tagged, human CaMKIIδ was purchased from Carna Biosciences; purchased Carna Biosciences (CaMKIIδ); Wako Pure Chemical Industries (calmodulin) 02-111
method.summary: Evaluation of in vitro CaMKII inhibitory activity (binding assay, TR-FRET)
measurement.setup: human CaMKIIδ, TR-FRET binding assay; class symbols A/B/C; read-out: Act (CaMKII inhibitory activity, binding assay)
Listed molecules paired with reported IC50

Check out these entries, answers already filled in.
molecule: C[C@@H](Cn1cnnn1)Oc1cc(-c2ccc3ncc(-c4cn(CC(=O)OCc5ccccc5)nc4C#N)n3n2)ccc1F [compound 124]
IC50: 10 to 100 nM
--
molecule: C[C@@H](Cn1cnnn1)Oc1cccc(-c2ccn3ncc(-c4cccc(C(=O)NCCN5CCCC5=O)c4)c3n2)c1 [compound 113]
IC50: < 10 nM
--
molecule: C[C@@H](Cn1cnnn1)Oc1cc(-c2ccn3ncc(-c4ccc(C#N)cc4)c3n2)ccc1F [compound 136]
IC50: 10 to 100 nM

Now for a further molecule.
Problem: Query the reported IC50 for human CaMKIIδ (Homo sapiens); item: CC(=O)NCCCNC(=O)c1cccc(-c2cnn3ccc(-c4cccc(O[C@@H](C)Cn5cnnn5)c4)nc23)c1 [compound 102]
Solution: < 10 nM

Data origin, for the record: patent US12528816B2
